- system: ATM (Homo sapiens, UniProt Q13315)
- Construct: detecting phosphorylation of Chk2 in a human non-small cell lung cancer cell line NCI-H460 (ATCC company); host or cells: NCI-H460 human non-small cell lung cancer cells
- Sequence (Q13315 whole entry): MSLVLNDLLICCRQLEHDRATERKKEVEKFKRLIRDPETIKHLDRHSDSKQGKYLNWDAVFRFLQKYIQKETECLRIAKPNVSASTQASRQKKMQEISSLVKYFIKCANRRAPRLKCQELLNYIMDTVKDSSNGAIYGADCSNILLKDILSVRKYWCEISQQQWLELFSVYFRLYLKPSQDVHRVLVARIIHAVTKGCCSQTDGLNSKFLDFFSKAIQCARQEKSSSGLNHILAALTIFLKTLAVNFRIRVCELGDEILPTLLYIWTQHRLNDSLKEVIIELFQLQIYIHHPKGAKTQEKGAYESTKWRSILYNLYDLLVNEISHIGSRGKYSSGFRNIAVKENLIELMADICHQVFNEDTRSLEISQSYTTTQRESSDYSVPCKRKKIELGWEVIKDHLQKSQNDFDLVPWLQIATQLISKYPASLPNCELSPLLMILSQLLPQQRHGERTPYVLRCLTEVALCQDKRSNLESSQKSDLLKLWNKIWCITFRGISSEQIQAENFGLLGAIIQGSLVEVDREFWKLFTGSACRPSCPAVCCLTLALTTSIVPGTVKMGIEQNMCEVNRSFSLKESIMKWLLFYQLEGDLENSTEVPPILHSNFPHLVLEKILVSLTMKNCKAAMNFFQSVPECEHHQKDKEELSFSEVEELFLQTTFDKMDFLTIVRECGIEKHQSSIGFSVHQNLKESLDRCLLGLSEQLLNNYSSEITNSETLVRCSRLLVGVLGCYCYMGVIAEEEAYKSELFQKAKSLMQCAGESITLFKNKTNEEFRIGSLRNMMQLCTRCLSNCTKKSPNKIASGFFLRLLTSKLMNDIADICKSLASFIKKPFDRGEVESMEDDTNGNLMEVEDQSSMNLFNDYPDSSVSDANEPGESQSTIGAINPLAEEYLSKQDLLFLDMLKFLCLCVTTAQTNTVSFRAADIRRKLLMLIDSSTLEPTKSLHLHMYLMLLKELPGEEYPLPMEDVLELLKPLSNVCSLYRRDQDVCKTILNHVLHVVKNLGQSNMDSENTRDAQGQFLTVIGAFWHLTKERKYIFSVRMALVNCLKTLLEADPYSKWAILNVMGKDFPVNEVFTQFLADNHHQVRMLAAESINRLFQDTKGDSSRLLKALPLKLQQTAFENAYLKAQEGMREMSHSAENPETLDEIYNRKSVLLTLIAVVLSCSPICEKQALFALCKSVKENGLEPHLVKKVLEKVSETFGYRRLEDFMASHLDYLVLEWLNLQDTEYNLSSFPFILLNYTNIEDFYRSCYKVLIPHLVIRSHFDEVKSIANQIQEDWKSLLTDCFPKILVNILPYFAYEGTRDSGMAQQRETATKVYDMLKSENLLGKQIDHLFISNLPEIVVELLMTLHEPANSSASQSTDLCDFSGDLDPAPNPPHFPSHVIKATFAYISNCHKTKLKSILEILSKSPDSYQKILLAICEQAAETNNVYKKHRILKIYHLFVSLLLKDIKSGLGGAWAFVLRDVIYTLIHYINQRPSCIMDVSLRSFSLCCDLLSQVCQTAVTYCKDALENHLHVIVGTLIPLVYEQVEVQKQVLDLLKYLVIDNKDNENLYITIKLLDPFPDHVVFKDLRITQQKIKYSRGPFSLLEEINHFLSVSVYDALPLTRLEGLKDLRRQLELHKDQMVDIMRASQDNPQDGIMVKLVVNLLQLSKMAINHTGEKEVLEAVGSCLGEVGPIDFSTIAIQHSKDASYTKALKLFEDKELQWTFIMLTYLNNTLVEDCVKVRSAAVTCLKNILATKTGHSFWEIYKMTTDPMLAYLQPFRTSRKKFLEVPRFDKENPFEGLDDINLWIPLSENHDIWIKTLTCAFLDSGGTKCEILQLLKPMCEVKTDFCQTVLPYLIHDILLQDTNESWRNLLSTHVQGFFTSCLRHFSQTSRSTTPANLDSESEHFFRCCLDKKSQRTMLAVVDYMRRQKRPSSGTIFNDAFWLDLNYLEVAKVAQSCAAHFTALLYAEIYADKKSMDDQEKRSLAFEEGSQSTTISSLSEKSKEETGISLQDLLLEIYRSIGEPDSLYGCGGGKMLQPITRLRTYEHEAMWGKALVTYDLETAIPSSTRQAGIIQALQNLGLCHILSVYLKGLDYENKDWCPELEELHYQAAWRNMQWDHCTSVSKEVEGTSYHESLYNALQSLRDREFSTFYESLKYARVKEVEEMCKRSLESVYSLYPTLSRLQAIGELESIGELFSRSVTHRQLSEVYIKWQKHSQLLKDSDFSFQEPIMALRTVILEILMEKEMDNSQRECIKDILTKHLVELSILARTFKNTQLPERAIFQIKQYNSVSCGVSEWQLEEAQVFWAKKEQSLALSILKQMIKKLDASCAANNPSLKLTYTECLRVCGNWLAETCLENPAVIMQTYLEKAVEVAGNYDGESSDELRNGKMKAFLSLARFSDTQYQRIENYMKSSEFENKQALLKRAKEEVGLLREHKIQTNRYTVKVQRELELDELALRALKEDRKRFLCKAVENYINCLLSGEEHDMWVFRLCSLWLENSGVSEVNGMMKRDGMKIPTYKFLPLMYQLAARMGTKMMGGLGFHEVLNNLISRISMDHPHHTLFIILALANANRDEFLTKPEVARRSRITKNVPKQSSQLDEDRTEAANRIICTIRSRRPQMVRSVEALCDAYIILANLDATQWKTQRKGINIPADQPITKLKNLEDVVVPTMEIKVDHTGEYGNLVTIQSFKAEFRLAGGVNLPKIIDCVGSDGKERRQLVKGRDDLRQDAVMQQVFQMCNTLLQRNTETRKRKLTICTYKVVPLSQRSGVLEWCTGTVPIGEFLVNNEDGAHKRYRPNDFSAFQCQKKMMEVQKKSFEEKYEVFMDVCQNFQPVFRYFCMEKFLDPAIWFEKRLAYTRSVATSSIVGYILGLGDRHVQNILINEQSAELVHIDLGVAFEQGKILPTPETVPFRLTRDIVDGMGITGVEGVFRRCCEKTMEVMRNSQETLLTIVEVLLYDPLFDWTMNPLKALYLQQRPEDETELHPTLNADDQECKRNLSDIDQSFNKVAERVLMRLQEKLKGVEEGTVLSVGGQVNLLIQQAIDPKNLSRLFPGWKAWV
- measurementDescription: ATM inhibition test (phosphorylation of Chk2 generated by ionizing radiation, AlphaScreen SureFire)
- Assay type: cell-based
- measurementSetup: phosphorylated Chk2 in NCI-H460 cells, ionizing radiation 8Gy, 1 hour after test compound treatment; read-out: ATM inhibitory activity
pIC50: −log10 of the molar value.
measuredProperty: pIC50

>  <compound>
Cc1cccc(C(Nc2ccc3c(c2)Sc2cccc(-c4cc(N5CCOCC5)cc(=O)[nH]4)c2S3)C2CCCN(C)C2)n1 (single isomer, unassigned) [Example 1-22-4]

>  <system>
ATM (Homo sapiens, UniProt Q13315)

>  <measuredResult>
> 7.00

$$$$
>  <compound>
CC(CN1CC(C)OC(C)C1)Nc1ccc2c(c1)Sc1cccc(-c3cc(N4CCOCC4)cc(=O)[nH]3)c1S2 (stereo not drawn)

>  <system>
ATM (Homo sapiens, UniProt Q13315)

>  <measuredResult>
> 7.00

$$$$
>  <compound>
CC(C)(C)NCCNc1ccc2c(c1)Sc1cccc(-c3cc(N4CCOCC4)cc(=O)[nH]3)c1S2

>  <system>
ATM (Homo sapiens, UniProt Q13315)

>  <measuredResult>
5.70 to 6.30

$$$$

---

- system: ATM (Homo sapiens, UniProt Q13315)
- Construct: detecting phosphorylation of Chk2 in a human non-small cell lung cancer cell line NCI-H460 (ATCC company); host or cells: NCI-H460 human non-small cell lung cancer cells
- measurementDescription: ATM inhibition test (phosphorylation of Chk2 generated by ionizing radiation, AlphaScreen SureFire)
- Format: cell-based
- measurementSetup: phosphorylated Chk2 in NCI-H460 cells, ionizing radiation 8Gy, 1 hour after test compound treatment; read-out: ATM inhibitory activity
- Protocol: ATM inhibitory effects of a test compound were measured by detecting phosphorylation of Chk2 in a human non-small cell lung cancer cell line NCI-H460 (ATCC company). The level of phosphorylated Chk2 generated by an ionizing radiation was measured using AlphaScreen SureFire (TGR Biosciences). The cells were seeded by 40000 cells per well in 96-well CellBIND® plates (Corning International Inc.), and incubated at 37° C. overnight in 5% CO2. […]
pIC50: −log10 of the molar value.
pIC50: recorded values
measuredProperty: pIC50

>  <compound>
Cc1ccc(C(Nc2ccc3c(c2)Sc2cccc(-c4cc(N5CCOCC5)cc(=O)[nH]4)c2S3)C2CN(C)CCO2)nc1 (single isomer, unassigned) [Example 1-52-2]

>  <measuredResult>
> 7.00

$$$$
>  <compound>
COc1cncc(CNc2ccc3c(c2)Cc2cccc(-c4cc(N5CCOCC5)cc(=O)[nH]4)c2S3)c1

>  <measuredResult>
6.30 to 7.00

$$$$
>  <compound>
COc1cncc(C(C)Nc2ccc3c(c2)Cc2cccc(-c4cc(N5CCOCC5)cc(=O)[nH]4)c2O3)c1 (racemic)

>  <measuredResult>
6.30 to 7.00

$$$$
>  <compound>
CCC(Nc1ccc2c(c1)Sc1cccc(-c3cc(N4CCOCC4)cc(=O)[nH]3)c1S2)c1ccc(C)cn1 (stereo not drawn)

>  <measuredResult>
> 7.00

$$$$
>  <compound>
O=c1cc(N2CCOCC2)cc(-c2cccc3c2Sc2ccc(NC4CCCCC4Cl)cc2S3)[nH]1 (stereo not drawn)

>  <measuredResult>
5.70 to 6.30

$$$$
>  <compound>
O=c1cc(N2CCOCC2)cc(-c2cccc3c2Sc2ccc(N[C@@H]4CCCC[C@@H]4N4CCOCC4)cc2S3)[nH]1

>  <measuredResult>
> 7.00

$$$$

Recorded values, source patent US9586951B2.
